List of cell viability values.
- Tested on: P12-Ichikawa
- protocolDetails: cell viability relative to DMSO control; higher = less cytotoxic
- assayContext: RPMI 5 mM glucose + 10% dialyzed FBS; 48 h; 46.1 µM
endpointName: cell viability (%)

compound=COc1cc(NCc2ccc3nc(N)nc(N)c3c2C)cc(OC)c1OC assaytarget=P12-Ichikawa endpointname="cell viability" reportedmeasurement=1.75
compound=Oc1ccc(OCc2ccccc2)cc1 assaytarget=P12-Ichikawa endpointname="cell viability" reportedmeasurement=44.6
compound=CC(C)(N)c1ccc(-c2nc3ccccc3nc2-c2ccccc2)cc1 assaytarget=P12-Ichikawa endpointname="cell viability" reportedmeasurement=4.8
compound=C[C@@H]1CC[C@@]2(CC[C@]3(C)\C(=C/C[C@@H]4[C@@]5(C)CC[C@H](O)C(C)(C)[C@@H]5CC[C@@]34C)[C@@H]2[C@H]1C)C(O)=O assaytarget=P12-Ichikawa endpointname="cell viability" reportedmeasurement=113
compound="CN(CCOc1ccc(CC2SC(=O)NC2=O)cc1)c1ccccn1 (centres undefined)" assaytarget=P12-Ichikawa endpointname="cell viability" reportedmeasurement=97.4
compound=CC(=O)SC[C@@H](C)C(=O)N1CCC[C@H]1C(=O)N[C@@H](Cc1ccccc1)C(=O)O assaytarget=P12-Ichikawa endpointname="cell viability" reportedmeasurement=85.2
compound=CC1(C)SCCN([S+](=O)([O-])c2ccc(OCC#CCO)cc2)[C@H]1C(=O)NO assaytarget=P12-Ichikawa endpointname="cell viability" reportedmeasurement=83.6
compound=OC[C@H]1O[C@H](C[C@@H]1O)N2/C=C(C(=O)NC2=O)/C(F)(F)F assaytarget=P12-Ichikawa endpointname="cell viability" reportedmeasurement=11.1
compound="C[C@]12CCC3c4ccc(O)cc4CCC3C1CCC2=O (some centres undefined)" assaytarget=P12-Ichikawa endpointname="cell viability" reportedmeasurement=66.4

---

- Test system: NOMO1
- protocolDetails: cell viability relative to DMSO control; higher = less cytotoxic
- assayContext: HPLM + 10% dialyzed FBS; 48 h; 0.0211 µM
List of cell viability values.
endpointName: cell viability (%)

compound=CN(C)c1nc(Cc2ccc(NC(=O)c3ccc(C(F)(F)F)cc3)cc2)nc(N(C)C)c1CC(=O)O u=% reportedmeasurement=94.5
compound="CN(C)CCCC1(c2ccc(F)cc2)OCc2cc(C#N)ccc21 (centres undefined)" u=% reportedmeasurement=90.7
compound=CC(C)(N)c1ccc(-c2nc3ccccc3nc2-c2ccccc2)cc1 u=% reportedmeasurement=68.5
compound=O=C(/C=C/c1ccc(/C=C/C(=O)Nc2ccc(C3=NCCN3)cc2)cc1)Nc1ccc(C2=NCCN2)cc1 u=% reportedmeasurement=108
compound=c1cc(-c2cnn3cc(-c4ccc(OCCN5CCCCC5)cc4)cnc23)ccn1 u=% reportedmeasurement=87.5
compound=C[C@H](NC(=O)Cc1cc(F)cc(F)c1)C(=O)N[C@H](C(=O)OC(C)(C)C)c1ccccc1 u=% reportedmeasurement=101
compound=NC(=O)c1cnccn1 u=% reportedmeasurement=133
compound=COc1cc(NCc2ccc3nc(N)nc(N)c3c2C)cc(OC)c1OC u=% reportedmeasurement=95.1
compound=COC1=CC=C(C=C1)/C2=C(O)/C(=O)C3=C(O)C=C(O)C(=C3O2)CC=C(C)C u=% reportedmeasurement=114

---

- System: SEM cells
- protocolDetails: cell viability relative to DMSO control; higher = less cytotoxic
- assayContext: RPMI 5 mM glucose + 10% dialyzed FBS; 48 h; 1.71 µM
List of cell viability values.
endpointName: cell viability

molecule=CCOC(=O)N1CCN(/[N+]([O-])=N/Oc2cc(O/N=[N+](\[O-])N3CCN(C(=O)OCC)CC3)c([N+](=O)[O-])cc2[N+](=O)[O-])CC1 reportedmeasurement=108%
molecule="CC(C(C)N1CC(=O)NC(=O)C1)N1CC(=O)NC(=O)C1 (centres undefined)" reportedmeasurement=91.3%
molecule=CCN(CC)CCNC(=O)c1c(C)[nH]c(/C=C2\C(=O)Nc3ccc(F)cc32)c1C reportedmeasurement=6.13%
molecule=CN1C(=O)/C(=C(NC2=CC=C(I)C=C2F)\C3=C1\N=C/N(C[C@@H](O)CO)C3=O)F reportedmeasurement=54.8%
molecule=Nc1nc(F)nc2c1ncn2[C@@H]1O[C@H](COP(=O)(O)O)[C@@H](O)[C@@H]1O reportedmeasurement=52.9%
molecule=CO[C@H]1/C=C/O[C@@]2(C)Oc3c(C)c(O)c4c(c3C2=O)C2=NC3(CCN(CC(C)C)CC3)NC2=C(NC(=O)/C(C)=C/C=C/[C@H](C)[C@H](O)[C@@H](C)[C@@H](O)[C@@H](C)[C@H](OC(C)=O)[C@@H]1C)C4=O reportedmeasurement=26.7%
molecule=COc1cc2c(cc1OC)[C@@H]1Cc3ccc(OC)c(OC)c3CN1CC2 reportedmeasurement=133%
molecule=COc1ccc(F)c(F)c1C(=O)c1cnc(NC2CCN([S+](C)(=O)[O-])CC2)nc1N reportedmeasurement=91.1%
molecule=CN(C)C/C=C/C(=O)Nc1ccc(C(=O)Nc2cccc(Nc3ncc(Cl)c(-c4c[nH]c5ccccc45)n3)c2)cc1 reportedmeasurement=4.94%

---

List of cell viability values.
- System: SEM cells
- protocolDetails: cell viability relative to DMSO control; higher = less cytotoxic
- assayContext: RPMI 5 mM glucose + 10% dialyzed FBS; 48 h; 1.71 µM
endpointName: cell viability (%)

smilesrepr=CCCCc1ccc2[nH]c(NC(=O)OC)nc2c1 reportedmeasurement=20.8
smilesrepr=NC(=O)c1cccc(-c2cc(Nc3ccc(OC(F)(F)F)cc3)ncn2)c1 reportedmeasurement=104
smilesrepr=c1cc(-c2cnn3cc(-c4ccc(OCCN5CCCCC5)cc4)cnc23)ccn1 reportedmeasurement=90
smilesrepr=CN1CCc2c(c3ccccc3n2Cc2ccc(C(=O)NO)cc2)C1 reportedmeasurement=77.2
smilesrepr=CC(C)(N)c1ccc(-c2nc3ccccc3nc2-c2ccccc2)cc1 reportedmeasurement=4.9
smilesrepr=Cc1cc(Nc2ncc3c(n2)N(C)C(=O)N(c2cc(NC(=O)c4cccc(C(F)(F)F)c4)ccc2C)C3)n(C)n1 reportedmeasurement=11.5
smilesrepr=CO[C@@H](C(=O)N1Cc2[nH]nc(NC(=O)c3ccc(N4CCN(C)CC4)cc3)c2C1)c1ccccc1 reportedmeasurement=20.2
smilesrepr=Cc1nc(-c2ccc(OCC(C)C)c(C#N)c2)sc1C(=O)O reportedmeasurement=111
smilesrepr=C[C@H](NC(=O)Cc1cc(F)cc(F)c1)C(=O)N[C@H](C(=O)OC(C)(C)C)c1ccccc1 reportedmeasurement=79.6

---

- Test system: P12-Ichikawa
- protocolDetails: cell viability relative to DMSO control; higher = less cytotoxic
- assayContext: RPMI 5 mM glucose + 10% dialyzed FBS; 48 h; 0.569 µM
endpointName: cell viability

compound=Cc1cc(Nc2ncc3c(n2)N(C)C(=O)N(c2cc(NC(=O)c4cccc(C(F)(F)F)c4)ccc2C)C3)n(C)n1 endpointname="cell viability" reportedmeasurement=111%
compound=CC(C)(N)C(=O)N[C@H](COCc1ccccc1)C(=O)N1CCC2(CC1)CN([S+](C)(=O)[O-])c1ccccc12 endpointname="cell viability" reportedmeasurement=123%
compound=Cc1cn2cc(C(=O)N(C)CCO)cc(N[C@@H]3CCOc4cccc(C)c43)c2n1 endpointname="cell viability" reportedmeasurement=118%
compound=CC(=O)SC[C@@H](C)C(=O)N1CCC[C@H]1C(=O)N[C@@H](Cc1ccccc1)C(=O)O endpointname="cell viability" reportedmeasurement=95.4%
compound=C[S+](=O)([O-])Oc1ccc2c(NC(N)=O)c(C(=O)c3ccc(Cl)cc3Cl)oc2c1 endpointname="cell viability" reportedmeasurement=122%
compound="CN(C)CCCC1(c2ccc(F)cc2)OCc2cc(C#N)ccc21 (stereo unspecified)" endpointname="cell viability" reportedmeasurement=89.3%
compound=CN1C(=O)/C(=C(NC2=CC=C(I)C=C2F)\C3=C1\N=C/N(C[C@@H](O)CO)C3=O)F endpointname="cell viability" reportedmeasurement=76.2%
compound=Nc1nc(F)nc2c1ncn2[C@@H]1O[C@H](COP(=O)(O)O)[C@@H](O)[C@@H]1O endpointname="cell viability" reportedmeasurement=124%
compound=CCn1nnc2c(N3CCOCC3)nc(-c3ccc(NC(=O)Nc4ccc(C(=O)N5CCN(C)CC5)cc4)cc3)nc21 endpointname="cell viability" reportedmeasurement=103%
compound=c1cc(-c2cnn3cc(-c4ccc(OCCN5CCCCC5)cc4)cnc23)ccn1 endpointname="cell viability" reportedmeasurement=78.8%
compound=COc1cc(C(=O)NC2CCN(C)CC2)ccc1Nc1ncc2c(n1)N(C1CCCC1)CCC(=O)N2C(C)C endpointname="cell viability" reportedmeasurement=92.3%
compound="CO[C@H]1CCC(O[C@H]2C[C@H]([C@]3(C)CC[C@]4(C[C@H](O)[C@@H](C)[C@@H]([C@@H](C)/C=C(\\C)C(=O)[C@H](C)C[C@H](C)C(=O)[O-])O4)O3)O[C@]3(O[C@@H]([C@H]4O[C@@](O)(CO)[C@H](C)C[C@@H]4C)C[C@@H]3C)[C@@H]2C)O[C@@H]1C (stereo partly specified)" endpointname="cell viability" reportedmeasurement=108%
compound=CC1(C)SCCN([S+](=O)([O-])c2ccc(OCC#CCO)cc2)[C@H]1C(=O)NO endpointname="cell viability" reportedmeasurement=88.1%
compound=CCNC(=O)Nc1ccc(Oc2ncnc(N)c2/C=N/OC)cc1Cl endpointname="cell viability" reportedmeasurement=118%
compound=COc1c(Cl)cc2c([nH]c3cnccc32)c1NC(=O)c1cccnc1C endpointname="cell viability" reportedmeasurement=97.7%
compound=COc1cc2c(cc1OC)[C@@H]1Cc3ccc(OC)c(OC)c3CN1CC2 endpointname="cell viability" reportedmeasurement=124%
